- Experiment Description: NCI Yeast Anticancer Drug Screen. Data for the rad50 strain (AID 155);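 note: 0% = growth of vehicle-only cultures of the same strain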
- Condition Details: S. cerevisiae rad50 strain growth inhibition; at 50.0 µM (retest, dose inferred, filed as 5.0); hits give high values
- Experimental: Growth inhibition of yeast strains with defined genetic alterations is measured as a screen for potential anti-cancer activity. Selected strains with alterations in DNA damage repair or cell cycle control were exposed to compounds and growth inhibition was measured relative to vehicle treated controls. The strain used in this assay is rad50
This is part of a sample that, as a whole, favours compounds with a hit. Of some 79,000 tested, about 15% had one in any assay.
Values of growth inhibition greater than or equal to 80% map to Yes; values below map to No.

• Cc1ccc2c(-c3ccccc3)c3ccccc3cc2c1C = No
• CC(C)SC(=S)Nc1ccc(Cl)cc1 = Yes
• O=C(O)CN(CC(=O)O)C1CCCCC1N1CC(=O)OC(=O)C1 (configuration not stated) = No
• CCCC(=O)Nc1cc([N+](=O)[O-])ccc1O = Yes
• Cc1cccc2c1NC(c1c(C)[nH]c3ccccc13)C2 (configuration not stated) = No

----------
- Experiment Description: NCI Yeast Anticancer Drug Screen. Data for the sgs1 mgt1 strain (AID 161);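 note: 0% = growth of cultures given vehicle only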
- Condition Details: S. cerevisiae sgs1 mgt1 strain, at 50.0 µM, hits give high values
Compounds without any hit were thinned out: in the full panel of roughly 79,000, 15% have a hit.
Property Label: growth inhibition (%)

* CNC(=O)OCc1c(COC(=O)NC)c(-c2ccc(Cl)c(Cl)c2)n2c1Cc1ccccc1C2 | 88.8
* CC(=O)Nc1ccc(-c2nnc(SCC(=O)Nc3cccc(Cl)c3)o2)cc1 | 55.6
* COC(=O)c1ccc(C)cc1C1CN=NC12Cc1cccc(C)c1C2=O (centres undefined) | 8.65
* Cc1ccc(S(=O)(=O)S/C(=N\c2ccccn2)Nc2ccccn2)cc1 | 58.6

----------
- Experiment Description: NCI Yeast Anticancer Drug Screen. Data for the rad50 strain (AID 155);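 note: 0% = growth of vehicle-only cultures of the same strain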
- Condition Details: S. cerevisiae rad50 strain growth inhibition; at 50.0 µM; hits give high values
The panel holds about 79,000 compounds, 15% with a hit somewhere; the sample as a whole holds those more often.
Property Label: growth inhibition (%)

- COC(=O)C1(C)CCCC2(C)C3CCC4CC3(C=C4CO)CCC12 (stereo not given): 53
- COC(O)C(=O)c1ccc2c(c1)CC1(C2)Cc2cc3c(cc2C1=O)CCC3 (stereo not given): 20.2
- NC(=S)Nc1cccc(C(F)(F)F)c1: 99.2
- C1=C(C2=CCCc3ccccc32)c2ccccc2CC1: 30.4
- COC(=O)C1C(c2ccccc2)=N[C@@H](c2ccccc2)[C@H]1C(=O)OC (stereo not given in full): 17.4
- NNc1ccccc1[N+](=O)[O-]: 89
- CCOC(=O)/C(=C\c1ccccc1)C(=O)CCN1CCOCC1: 95.5
- O=C1c2ccccc2C(=O)c2c1cccc2[N+](=O)[O-]: 90.9
- CC12CCC(=O)C=C1CCC1C2CCC2(C)C(C(=O)Cn3cnc4c(=S)nc[nH]c43)CCC12 (stereo not given): 32.2
- COc1ccccc1/C=N/Nc1nnc(N/N=C/c2ccccc2OC)c2ccccc12: 74.6
- Clc1ccc2c(NC3CCC(N4CCCCC4)CC3)ccnc2c1 (stereo not given): -13.2
- O=S(=O)(Nc1ccccc1)c1ccccc1C(O)(c1ccccc1)c1ccccc1: 93.6
- CC(C)=CC1C(COC(=O)CCl)C1(C)C (stereo not given): 1.85
- O=C(CCN1CCN(c2cccc(Cl)c2)CC1)N1CCc2c([nH]c3ccccc23)C1c1cccnc1 (stereo not given): 90.4
- NC(=O)CC1CCC(c2ccccc2)CC1 (stereo not given): 44

----------
Listed compounds paired with reported growth inhibition
- Experiment Description: NCI Yeast Anticancer Drug Screen. Data for the mec2-1 strain (AID 157)
- Condition Details: S. cerevisiae mec2-1 strain, at 5.0 µM (retest, dose inferred, filed as 0.5), hits give high values
This is part of a sample that, as a whole, favours compounds with a hit. Of some 79,000 tested, about 15% had one in any assay.
Property Label: growth inhibition (%)

* [O-]c1c2cc(-[n+]3c(-c4ccccc4)cc(-c4ccccc4)cc3-c3ccccc3)cc1CO[C@@H](c1ccccc1)[C@H](c1ccccc1)OCc1cccc(n1)CO[C@@H](c1ccccc1)[C@H](c1ccccc1)OC2 | 98
* CC1CCCC(C(c2c[nH]c3ccccc23)c2c[nH]c3ccccc23)C1=O (stereo not given) | 1
* Cc1ccc(S(=O)(=O)NC(Cc2ccccc2)C(=O)CCl)cc1 (stereo not given) | 66
* CCOC(=O)Cn1c(=O)c2nc(SC)sc2n(-c2ccc(C)cc2)c1=S | -1
* CCN(CC)CCC(=O)c1ccc2c3c(n(C)c2c1)CCCC3 | 0
* COC(C)(C)[C@@H]1CCCN1C1=C(C)C(=O)OC1 | 85
* COC(=O)C1C(c2ccccc2)=N[C@@H](c2ccccc2)[C@H]1C(=O)OC (stereo not given in full) | 3
* CNCCCNc1c2cc(OC)ccc2nc2cccc([N+](=O)[O-])c12 | -10
* O=S(=O)(CCCCl)SCCCCl | 15
* Cc1cccc(Cc2ccc(Cl)cc2)c1O | -1

----------
- Experiment Description: NCI Yeast Anticancer Drug Screen. Data for the cln2 rad14 strain (AID 165);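 note: 0% = growth equal to vehicle treated cultures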
- Condition Details: S. cerevisiae cln2 rad14 strain, at 50.0 µM
- Procedure: Growth inhibition of yeast strains with defined genetic alterations is measured as a screen for potential anti-cancer activity. Selected strains with alterations in DNA damage repair or cell cycle control were exposed to compounds and growth inhibition was measured relative to vehicle treated controls. The strain used in this assay is cln2 rad14
The panel holds about 79,000 compounds, 15% with a hit somewhere; the sample as a whole holds those more often. Activity calls are given as the source filed them. No stated cut-off is given here; in the data, active means growth inhibition above about 70%; inactive means the rest.
Classes used: active, inactive

- O=C(/C=C/c1ccc(O)cc1)c1cc(Cl)ccc1O: active
- CCN(CC)CCCCCCNc1cc(C)cc2ccc(C)nc12: inactive
- COc1ccccc1C(=O)c1ccc2ccccc2c1: inactive

----------
- Experiment Description: NCI Yeast Anticancer Drug Screen. Data for the mlh1 rad18 strain (AID 175)
- Condition Details: S. cerevisiae mlh1 rad18 strain growth inhibition; at 50.0 µM
Compounds without any hit were thinned out: in the full panel of roughly 79,000, 15% have a hit. Calls of active or inactive are those of the source. No stated cut-off is given here; in the data, active means growth inhibition above about 70%; inactive means the rest.
Classes used: 1 (active), 0 (inactive)

• Cc1ccc(S(=O)(=O)NC2(C=O)CCC(C(C)(C)C)CC2)cc1 (configuration not stated) = 1
• Cc1cc(C(=O)CBr)c(CN2C(=O)c3ccccc3C2=O)c(=O)n1C = 0
• OC(COc1ccc(Cl)cc1)CN1CCN(c2cccc(Cl)c2)CC1 (configuration not stated) = 1
• CCC(CO)Nc1nc2cc(Br)ccc2c2ccc(Br)cc12 (configuration not stated) = 1
• Oc1cc2c(cc1C(c1ccc(Cl)cc1)N1CCOCC1)OCO2 (configuration not stated) = 1
• Nc1ccccc1O = 1
• C=CCOC(=O)CC(OC(C)=O)C(CC)CC(C)C (configuration not stated) = 0
• OC(CCl)c1ccc2ccc3c(c2c1)Nc1ccccc1S3 (configuration not stated) = 1
• CCOc1cc2c(cc1O)CC[C@@H]1[C@@H]2CC[C@]2(C)[C@@H](O)CC[C@@H]12 = 0
• CC1CCN(CCCOC(=O)c2ccccc2)CC1 = 0
• COc1ccc(C(=O)C2Cc3c(ccc4ccccc34)OC2=O)cc1 (configuration not stated) = 0
• CC(C)C[P+](c1ccccc1)(c1ccccc1)c1ccccc1 = 1

----------
- Experiment Description: NCI Yeast Anticancer Drug Screen. Data for the cln2 rad14 strain (AID 165);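 note: 0% = growth equal to vehicle treated cultures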
- Condition Details: S. cerevisiae cln2 rad14 strain, at 50.0 µM, hits give high values
This is part of a sample that, as a whole, favours compounds with a hit. Of some 79,000 tested, about 15% had one in any assay.
Values of growth inhibition greater than or equal to 60% map to class 1; values below map to class 0.

• COc1cc2c(cc1O)C(O)CCCC2 (stereo not drawn) = class 0
• COc1cc(OC)c(OC)cc1/C=C\c1nccc2ccccc12 = class 1
• CCOC(=O)Oc1ccc(C)cc1[N+](=O)[O-] = class 0
• CC(=O)O[C@@H]1c2c(c3c(=O)c4cccc(O)c4c(=O)c=3c2=[N+]=[N-])[C@H](OC(C)=O)[C@@H](OC(C)=O)[C@]1(C)O = class 1
• O=C(CC(C(=O)O)c1c[nH]c2ccccc12)c1ccccc1 (stereo not drawn) = class 0
• Cn1c(=O)ccc2cc(C(=O)c3ccccc3)ccc21 = class 0
• COC(=O)c1nc(=S)[nH]c(C(=O)OC)c1C(=O)c1ccc([N+](=O)[O-])cc1 = class 0
• COc1ccc(CSC(=S)Nc2ccc(SC)c(Cl)c2)cc1 = class 1
• CC(=O)Oc1c(C)cc(C)cc1Cc1cc(C(C)=O)cc(Cc2cc(C)cc(C)c2OC(C)=O)c1OC(C)=O = class 1
• Cc1cc(=O)c2cc(N=Cc3ccc([N+](=O)[O-])o3)ccc2o1 = class 0
• CCOC(=O)N1C2C=CC(=O)C(C=C2)N1C(=O)OCC (stereo not drawn) = class 1
• CCOc1ccc(/C=C\c2ccnc3ccccc23)cc1OCC = class 1
• S=c1n(-c2ccc(Cl)cc2)c2nc3ccccc3nc(/c2=N\Nc2cc(Cl)ccc2Cl)n1-c1ccc(Br)cc1 = class 1
• O=C(CBr)Nc1ccc(Cc2ccc(NC(=O)CBr)cc2)cc1 = class 1
• Cc1cc(Br)ccc1NC(=O)/C=C/C(=O)O = class 0
• Cc1cc(CN(Cc2ccccc2)Cc2nc3ccccc3[nH]2)c(O)c(CN(Cc2nc3ccccc3[nH]2)Cc2nc3ccccc3[nH]2)c1 = class 1
• O=C1c2ccc(S(=O)(=O)O)cc2C(=O)c2ccc(S(=O)(=O)O)cc21 = class 0
• COC1=CC2=CCC3C(CCC4(C)C(C(C)=O)CCC34)C2(C)CC1 (stereo not drawn) = class 0
• CC1COC(c2cn[nH]c2C(N)=O)C1O (stereo not drawn) = class 0
• C=C1C(=O)OC2CC3(C)CC(O)C(O)C(=C)C3CC12 (stereo not drawn) = class 1
• CC(=O)OCC1OC(n2cnc3c(Cl)nc(Cl)nc32)C(OC(C)=O)C1OC(C)=O (stereo not drawn) = class 1
• CCCCCCCCCCOC(=O)c1cc[n+](C)cc1 = class 0
• Oc1ccc(C(O)(c2ccccc2)c2ccccc2)c2ccccc12 = class 1
• NNC(=O)N/N=C(/CC1(O)C(=O)Nc2ccc(Br)cc21)c1ccccc1 (stereo not drawn) = class 0
• C[N+](C)(C)CC(=O)N/N=C(\C(=O)NC1=C(Cl)C(=O)c2ccccc2C1=O)C(C#N)c1nc(-c2ccc([N+](=O)[O-])cc2)cs1 (stereo not drawn) = class 0
• c1ccc2c(CCc3ccncc3)cccc2c1 = class 1
• Cc1nc2c(Cl)nc(Cl)nc2s1 = class 1

Source: PubChem BioAssay (NCI)
